# TEST SYSTEM: IRAK4 (Homo sapiens)
# TEST PROTOCOL: ALE THP1 HTRF (IRAK4 degradation in THP1 cells, HTRF with anti-IRAK4 antibodies)
# Type: cell-based
# Set-up: THP1 Homogeneous Time Resolved Fluorescence (ALE THP1 HTRF) Procedure; endogenous in cells; host or cells: THP1
# CONDITION PARAMETERS: THP1 cell lysate, read-out: ALE THP1 HTRF EC50
Counter-ions that a name gives are not always drawn.
METRIC NAME: DC50 (nM)

Study these solved cases before continuing.
{"columns": ["COMPOUND", "READOUT UNITS", "DC50"],
 "data": [
  ["N[C@@H]1C[C@@H](F)CN(c2ccn3ncc(C(=O)Nc4cn([C@H]5CC[C@H](CCN6CCN(c7ccc(C8CCC(=O)NC8=O)cc7)CC6)CC5)nc4C(F)F)c3n2)C1 (some centres unmarked) [Compound P-21, formic acid salt]", "nM", 10],
  ["N[C@@H]1C[C@@H](F)CN(c2ccn3ncc(C(=O)Nc4cn([C@H]5CC[C@H](CCN6CCN(c7ccc(C8CCC(=O)NC8=O)cc7)CC6)CC5)nc4C(F)(F)F)c3n2)C1 (some centres unmarked) [Compound P-11, hydrochloride]", "nM", 15]
]}

(P) N[C@@H]1C[C@@H](F)CN(c2ccn3ncc(C(=O)Nc4cn([C@H]5CC[C@H](C(=O)NC6CCN(c7ccc(C8CCC(=O)NC8=O)cc7)CC6)CC5)nc4C(F)F)c3n2)C1 (some centres unmarked) [Compound P-15, hydrochloride]
(Q) N[C@@H]1C[C@@H](F)CN(c2ccn3ncc(C(=O)Nc4cn([C@H]5CC[C@H](CCN6CCC7(CC6)CN(c6cccc(C8CCC(=O)NC8=O)c6)C7)CC5)nc4C(F)F)c3n2)C1 (some centres unmarked) [Compound P-26]
Hello, I am sorting some records. Could you say if P or Q has the smaller DC50 value? Choose, then provide that item's label.
P
(P: 4 nM, Q: 15 nM)

----------
# TEST SYSTEM: IRAK4 (Homo sapiens, UniProt Q9NWZ3)
# Sequence (Q9NWZ3 whole entry): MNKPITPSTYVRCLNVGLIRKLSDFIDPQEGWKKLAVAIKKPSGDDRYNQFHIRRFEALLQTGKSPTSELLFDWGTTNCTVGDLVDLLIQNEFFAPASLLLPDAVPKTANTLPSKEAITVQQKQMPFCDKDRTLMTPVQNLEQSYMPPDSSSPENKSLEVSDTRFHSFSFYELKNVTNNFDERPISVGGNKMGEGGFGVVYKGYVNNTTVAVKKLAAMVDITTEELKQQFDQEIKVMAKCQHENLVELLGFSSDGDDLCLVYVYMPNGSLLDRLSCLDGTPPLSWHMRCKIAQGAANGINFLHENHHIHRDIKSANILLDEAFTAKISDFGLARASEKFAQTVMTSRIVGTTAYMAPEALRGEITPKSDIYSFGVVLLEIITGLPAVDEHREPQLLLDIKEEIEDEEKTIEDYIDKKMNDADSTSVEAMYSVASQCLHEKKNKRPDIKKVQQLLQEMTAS
# TEST PROTOCOL: ALE THP1 HTRF (IRAK4 degradation in THP1 cells, HTRF with anti-IRAK4 antibodies)
# Assay type: cell-based
# Parameters: THP1 Homogeneous Time Resolved Fluorescence (ALE THP1 HTRF) Procedure; endogenous in cells; host or cells: THP1
# CONDITION PARAMETERS: THP1 cell lysate, read-out: ALE THP1 HTRF EC50
Counter-ions that a name gives are not always drawn.
METRIC NAME: DC50 (nM)

Study these solved cases before continuing.
{"columns": ["COMPOUND", "READOUT UNITS", "DC50"],
 "data": [
  ["CN(CC1CCN(C[C@H]2CC[C@H](n3cc(NC(=O)c4cnn5ccc(N6C[C@H](N)C[C@@H](F)C6)nc45)c(C(F)F)n3)CC2)CC1)c1cccc(C2CCC(=O)NC2=O)c1 (stereo partly shown) [Compound P-19, dihydrochloride]", "nM", 10],
  ["N[C@@H]1C[C@@H](F)CN(c2ccn3ncc(C(=O)Nc4cn([C@H]5CC[C@H](CN6CCN(c7ccc(C8CCC(=O)NC8=O)cc7)CC6)CC5)nc4C(F)(F)F)c3n2)C1 (stereo partly shown) [Compound P-10]", "nM", 964],
  ["N[C@@H]1C[C@@H](F)CN(c2ccn3ncc(C(=O)Nc4cn([C@H]5CC[C@H](CN6CCC7(CC6)CN(c6cccc(C8CCC(=O)NC8=O)c6)C7)CC5)nc4C(F)F)c3n2)C1 (stereo partly shown) [Compound P-18]", "nM", 9180],
  ["N[C@@H]1C[C@@H](F)CN(c2ccn3ncc(C(=O)Nc4cn([C@H]5CC[C@H](CCN6CCN(c7cccc(C8CCC(=O)NC8=O)c7)CC6)CC5)nc4C(F)F)c3n2)C1 (stereo partly shown) [Compound P-22]", "nM", 3010],
  ["N[C@@H]1C[C@@H](F)CN(c2ccn3ncc(C(=O)Nc4cn([C@H]5CC[C@H](CN6CCN(Cc7ccc(C8CCC(=O)NC8=O)cc7)CC6)CC5)nc4C(F)(F)F)c3n2)C1 (stereo partly shown) [Compound P-13]", "nM", 405]
]}

(1) N[C@@H]1C[C@@H](F)CN(c2ccn3ncc(C(=O)Nc4cn([C@H]5CC[C@H](C(=O)N[C@H]6CC[C@H](c7ccc(C8CCC(=O)NC8=O)cn7)CC6)CC5)nc4C(F)F)c3n2)C1 (stereo partly shown) [Compound P-33]
(2) N[C@@H]1C[C@@H](F)CN(c2ccn3ncc(C(=O)Nc4cn([C@H]5CC[C@H](C(=O)N6CCC(CNc7cccc(C8CCC(=O)NC8=O)c7)CC6)CC5)nc4C(F)(F)F)c3n2)C1 (stereo partly shown) [Compound P-1, hydrochloride salt]
Hello, I am sorting some records. Could you say if 1 or 2 has the smaller DC50 value? Choose, then provide that item's label.
1

src = patent US20260317333A1
